- System: 786-0 renal
- ASSAY COMMENT: NCI tumour cell line growth inhibition, 48 h
READOUT KIND: TGI

# COMPOUND, TESTED ON, RECORDED MEASUREMENT
data = [
    ("Nc1nc(Cl)cc(NCC2(CO)CC=CC2)n1", "786-0 renal", "> 100 µM"),
    ("O=C(c1ccccc1)N1CCC(Nc2cccnc2)O1 (stereo not given)", "786-0 renal", "> 100 µM"),
    ("COc1ccc2c3c1OC1C4(CCC5C(C2)N(CC2CC2)CCC351)OCCO4 (stereo not given)", "786-0 renal", "> 100 µM"),
    ("CCOc1cc2cnc3c4cc(OC)c(OC)cc4ccc3c2cc1OC", "786-0 renal", "> 100 µM"),
    ("O[C@]12c3ccccc3C1CCCC2N1CCOCC1 (stereo not given in full)", "786-0 renal", "> 100 µM"),
    ("COC(=O)[C@]12CC[C@@H](C)[C@H](C)[C@@H]1C1=CC[C@@H]3[C@@]4(C)C(C=O)=C[C@@](C)(COC(=O)c5ccco5)C4=CC[C@@]3(C)[C@]1(C)CC2", "786-0 renal", "9.17 µM"),
    ("Cc1c(-c2cc(-c3ccccc3)n[nH]c2=O)c2ccccc2n1C", "786-0 renal", "> 100 µM"),
    ("CC(C)(C)c1cc(C#N)c2c(c1)C(=O)OC2(c1ccccc1)c1ccccc1C#N (stereo not given)", "786-0 renal", "> 100 µM"),
    ("Cc1cc(O)cc(-c2nn(C)cc2-c2cc(N3CCOCC3)nc(-c3cccnc3)n2)c1", "786-0 renal", "11.6 µM"),
    ("CN(C)CCSC(=Nc1ccccc1)n1cccc1", "786-0 renal", "> 100 µM"),
]

* * *

Consider the following compounds and their measured log10 TGI readings.
- Tested on: BT-549 breast
- ASSAY COMMENT: NCI tumour cell line growth inhibition, 48 h
READOUT KIND: log10 TGI (log10 of the value in µM)

# COMPOUND, READOUT KIND, RECORDED MEASUREMENT
measured = [
    ("CCOC(=O)/C=C(/C(=O)OCC)n1cc(C)c(=O)[nH]c1=O", "log10 TGI", 1.36),
    ("O=C1c2ccccc2C(=O)c2c1sc1nc3ccccc3n21", "log10 TGI", 0.54),
    ("Nc1ccccc1-n1c2c(c3ccccc3c1=O)C(=O)c1ccccc1-2", "log10 TGI", 1.11),
    ("CCCC(=O)Nc1cc(/C=C/C(=O)N2CC(CCl)c3c2cc(OC(C)=O)c2[nH]cc(C)c32)n(C)c1 (stereo not drawn)", "log10 TGI", -2.64),
    ("CC1(C)CC(C(=O)OCCCCCCCCCCC[P+](c2ccccc2)(c2ccccc2)c2ccccc2)C(C)(C)N1O (stereo not drawn)", "log10 TGI", 0.02),
]

* * *

Examples of molecules with documented TGI follow.
- System: HT29 colon
- ASSAY COMMENT: NCI tumour cell line growth inhibition, 48 h

# COMPOUND STRUCTURE, TGI
measured = [
    ("CCC1=NC(N/N=C/c2ccco2)=N/C1=C\\c1ccco1", "> 100 µM"),
    ("COC(OC)[C@@H]1OC[C@H](n2ccc(=O)[nH]c2=O)[C@H]1O", "> 100 µM"),
    ("O=C1c2ccccc2C(=O)c2c1sc1nc3ccccc3n21", "13.8 µM"),
    ("c1cc2nnc1SCCSCCCSCCS2", "> 100 µM"),
    ("Fc1c(F)c(F)c(CSc2nc3ccccc3[nH]2)c(F)c1F", "> 100 µM"),
    ("CN(CCCNC(=O)c1nn(-c2ccccc2)c2c1Cc1ccccc1-2)CCCNC(=O)c1nn(-c2ccccc2)c2c1Cc1ccccc1-2", "3.42 µM"),
    ("COc1cccc(C=C(C#N)C#N)c1OC", "> 100 µM"),
    ("C#CCOCn1cnc2c(N)ncnc21", "> 100 µM"),
    ("COc1cc(NC(=O)c2cc3ccccc3cc2O)c(OC)cc1Cl", "19.8 µM"),
    ("Cc1cc(=O)[nH]c(Sc2ccc([N+](=O)[O-])cc2[N+](=O)[O-])n1", "19.1 µM"),
    ("CCOc1ccc2c(c1)[n+]([O-])c(-c1ccc([N+](=O)[O-])cc1)c(N)[n+]2[O-]", "> 100 µM"),
]

* * *

Catalogue of TGI values
- System: CAKI-1 renal
- ASSAY COMMENT: NCI tumour cell line growth inhibition, 48 h
READOUT KIND: TGI

# COMPOUND, TESTED ON, READOUT KIND, RECORDED MEASUREMENT
rows = [
    ("CCOC1Oc2ccccc2-c2nc(N)ncc21 (stereo unspecified)", "CAKI-1 renal", "TGI", "> 100 µM"),
    ("CCOC(=O)COc1cc(-c2ccccc2)nc2cc(F)ccc12", "CAKI-1 renal", "TGI", "> 100 µM"),
    ("O=C(/C=C/c1ccco1)N1CCN(Cc2ccccc2)CC1", "CAKI-1 renal", "TGI", "> 100 µM"),
    ("NC1=CC(=O)C(=O)c2ccccc21", "CAKI-1 renal", "TGI", "53.3 µM"),
    ("CCCCSCCC(N)P(=O)(O)O (stereo unspecified)", "CAKI-1 renal", "TGI", "> 100 µM"),
    ("O=C1NC(=O)C23C(=O)NC(=O)C12C1C=CC3CC1 (stereo unspecified)", "CAKI-1 renal", "TGI", "> 10 µM"),
    ("CCOC(=O)/C(=C/c1ccccc1)N(CC)CC", "CAKI-1 renal", "TGI", "> 100 µM"),
    ("COc1ccc2cn3c4ccc(O)cc4[nH]c(=O)c3c2c1", "CAKI-1 renal", "TGI", "17 µM"),
    ("CC(CCCCNC(=O)OC(C)(C)C)NC(=O)NC(C)CCCCNC(=O)OC(C)(C)C (stereo unspecified)", "CAKI-1 renal", "TGI", "> 100 µM"),
    ("COC(=O)[C@]12CC[C@@H](C)[C@H](C)[C@@H]1C1=CC[C@@H]3[C@@]4(C)C(C=O)=C[C@@](C)(COC(=O)c5ccco5)C4=CC[C@@]3(C)[C@]1(C)CC2", "CAKI-1 renal", "TGI", "25.2 µM"),
    ("COC(=O)C[C@@H]1CC=CC(=O)/C1=C(O)/C=C/c1ccccc1", "CAKI-1 renal", "TGI", "1.41 µM"),
]

* * *

- System: NCI-H226 lung
- ASSAY COMMENT: NCI tumour cell line growth inhibition, 48 h; in the data active means GI50 below about 0.43 µM; inactive means the rest
Outcome codes: y = active, n = inactive

# MOLECULE, LABEL CLASS
records = [
    ("CCN(CC)CCC(CNc1c(C)cnc2cc(Cl)ccc12)c1ccc(Cl)c(Cl)c1 (stereo not given)", "n"),
    ("CN1CCN(c2ccc(NC(=O)c3cncnc3Nc3ccc4c(ccn4Cc4cccc(F)c4)c3)cc2)CC1", "n"),
    ("COc1ccc2cn3c4ccc(O)cc4[nH]c(=O)c3c2c1", "y"),
    ("O=CCC(O)C(O)C(O)CO (stereo not given)", "n"),
    ("COc1ccc2c(ccc3oc([N+](=O)[O-])cc32)c1", "y"),
    ("COc1ccc(/C=N/C2=NNC(C)(c3ccccc3O)N2C(Cc2c[nH]c3ccccc23)C(=O)O)cc1 (stereo not given)", "n"),
    ("N#CC1=C(N)Oc2c(ccc3cccnc23)C1c1ccccc1 (stereo not given)", "n"),
    ("CC(=O)OCCC/C(=C/c1cc2ccccc2c2ccccc12)[N+](=O)[O-]", "n"),
    ("COc1ccc(-c2cncn2-c2ccc(-c3nc4cc(OC)c(OC)c(OC)c4s3)cc2)cc1N", "n"),
    ("COc1cc2c3c(n(CCCN=[N+]=[N-])c(=O)c2cc1OC)-c1ccc(NC(C)=O)cc1C3=O", "n"),
]

* * *

- Tested on: SK-MEL-2 melanoma
- ASSAY COMMENT: NCI tumour cell line growth inhibition, 48 h

# MOLECULE, TGI
measured = [
    ("CCC1=C(CC2NCCc3cc(OC)c(OC)cc32)CC2c3ccccc3CCN2C1 (stereo not drawn)", "29.2 µM"),
    ("CC(=O)NC(CCCCN(Cc1ccccc1)C(=O)N(C)N=O)C(=O)NCc1ccccc1 (stereo not drawn)", "> 100 µM"),
    ("CCCCCCCCCc1cc(=O)c2c(O)cc(O)cc2o1", "34.3 µM"),
    ("COc1ccccc1C(=O)Nc1ccc(Cl)c(C(=O)OC(C)C)c1", "> 76.8 µM"),
    ("COc1ccc(N2C(=O)C3c4[nH]c5ccc(OC)cc5c4C4CCC(c5ccccc5)CC4C3C2=O)cc1 (stereo not drawn)", "47.4 µM"),
    ("Nc1ncnc2c1N=CN(Oc1ccccc1)N2", "> 100 µM"),
    ("COc1cc2c(cc1OC)C(Cc1cc(Br)c(OC)c(OC)c1)=[N+](C)CC2", "> 100 µM"),
    ("c1cc2nnc1SCCSCCCSCCS2", "> 100 µM"),
    ("CC(C)C1COC(C(C)(C)C2=N[C@@H](C(C)C)CO2)=N1 (stereo partly drawn)", "> 100 µM"),
    ("CCCCSCCC(N)P(=O)(O)O (stereo not drawn)", "> 100 µM"),
    ("CCC12CN(C(=O)OC)C3C(Br)C1CCC(=O)C32 (stereo not drawn)", "> 100 µM"),
    ("Cn1c(=S)c2[nH]c(SCc3cccnc3)nc2n(C)c1=O", "> 100 µM"),
    ("COC(=O)C(Br)(C(=O)OC)C(Br)C(Br)C(Br)c1ccccc1 (stereo not drawn)", "27.8 µM"),
    ("CN(C)c1cccc2c(S(=O)(=O)NCCCNCCN)cccc12", "86.7 µM"),
    ("CC(C)C(=O)/C=C/c1ccc(Cl)cc1Cl", "27.6 µM"),
    ("COc1ccc(C(=O)c2cc(C)c(OC)c(C)c2)c(OC)c1OC(=O)C(Cl)Cl", "> 100 µM"),
    ("COC(=O)c1ccc(N/C=C(/C#N)c2ccsc2)cc1", "50.7 µM"),
    ("C[C@@H]1C[C@@H]2C(=O)N(c3ccccc3)C(=O)[C@@H]2c2[nH]c3ccc(Br)cc3c21", "> 100 µM"),
    ("COc1cc2cc[n+](C)c(Cc3ccc(Oc4cc(Cc5c6cc(OC)c(OC)cc6cc[n+]5C)ccc4OC)cc3)c2cc1OC", "> 100 µM"),
    ("CC(C)=CC1(C)/C(=N\\O)C(C)(CC(C)C)C(=O)N1O (stereo not drawn)", "> 100 µM"),
    ("COc1ccc2c(ccc3oc([N+](=O)[O-])cc32)c1", "0.292 µM"),
    ("C#C[C@]1(O)[C@@H](CO)O[C@@H](n2ccc(=O)[nH]c2=O)[C@@H]1O", "3.32 µM"),
    ("CCCCCCCCCCCCCC/C(C(=O)O)=C(\\C)C(=O)O", "> 100 µM"),
]
